FYI, the data here is from PubChem BioAssay AID1963985.

# Tested on: 252836-082-R-J2-PDC tumor spheroids, viability
# measurement.protocol: Anticancer human tumor 252836-082-R-J2-PDC patient-derived head and neck squamous cell carcinoma cell line growth inhibition [PI3K]
# condition.notes: second compound 1 µM; first compound 0.000316 µM; active compounds read low; spheroids with HUVEC and MSC
# Description: Combinatorial screen of targeted agents with the PI3K inhibitors inavolisib, alpelisib, duvelisib, and copanlisib in multi-cell type tumor spheroids A high-throughput screen of multi-cell type tumor spheroids was designed to identify active combinations of targeted small molecules and PI3K pathway inhibitors. […] Compounds. […] If the clinical Cmax for an agent had not been determined, the highest concentration tested was 10 microM. […]
Under this convention, True denotes viability, T/C strictly below 50% and False denotes viability, T/C at or above 50%.

compound="CC(=O)c1c(C)c2cnc(Nc3ccc(N4CCNCC4)cn3)nc2n(C2CCCC2)c1=O + CC(Nc1ncnc2nc[nH]c12)c1cc2cccc(Cl)c2c(=O)n1-c1ccccc1" label=False
compound="CC(C)n1nc(-c2ccc3oc(N)nc3c2)c2c(N)ncnc21 + CC(Nc1ncnc2nc[nH]c12)c1cc2cccc(Cl)c2c(=O)n1-c1ccccc1" label=False
compound="CC(=O)c1c(C)c2cnc(Nc3ccc(N4CCNCC4)cn3)nc2n(C2CCCC2)c1=O + Cc1nc(NC(=O)N2CCCC2C(N)=O)sc1-c1ccnc(C(C)(C)C(F)(F)F)c1" label=False

Confirm or reject: viability, T/C of Cn1ncnc1[C@H]1c2n[nH]c(=O)c3cc(F)cc(c23)N[C@@H]1c1ccc(F)cc1 + COc1c(OCCCN2CCOCC2)ccc2c3n(c(=NC(=O)c4cnc(N)nc4)nc12)CCN3 lies strictly below 50%
True

Confirm or reject: viability, T/C of CC(=O)c1c(C)c2cnc(Nc3ccc(N4CCNCC4)cn3)nc2n(C2CCCC2)c1=O + CC(Nc1ccc2c(c1)OCCn1cc(N3C(=O)OCC3C(F)F)nc1-2)C(N)=O lies strictly below 50%
True

====

# Test system: 252836-082-R-J2-PDC tumor spheroids, viability
# measurement.protocol: Anticancer human tumor 252836-082-R-J2-PDC cell line growth inhibition [PI3K];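 also: spheroids exposed to agents for seven days before readout; percent of vehicle DMSO control viability so 100% = untreated growth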
# condition.notes: second compound 0.0316 µM; first compound 0.0316 µM; active compounds read low; spheroids with HUVEC and MSC
experimental.endpoint: viability, T/C (%)
Answers are plain numbers, in %.

Sample answers from the record:
compound="CC1(C)CCC(CN2CCN(c3ccc(C(=O)NS(=O)(=O)c4ccc(NCC5CCOCC5)c([N+](=O)[O-])c4)c(Oc4cnc5[nH]ccc5c4)c3)CC2)=C(c2ccc(Cl)cc2)C1 + CC(Nc1ccc2c(c1)OCCn1cc(N3C(=O)OCC3C(F)F)nc1-2)C(N)=O" reading=77.6
compound="C=CC(=O)N1CCN(c2nc(=O)n(-c3c(C)ccnc3C(C)C)c3nc(-c4c(O)cccc4F)c(F)cc23)C(C)C1 (stereo not drawn) + COc1c(OCCCN2CCOCC2)ccc2c3n(c(=NC(=O)c4cnc(N)nc4)nc12)CCN3" reading=63

Which measured viability, T/C value corresponds to CC(C)NCC(C(=O)N1CCN(c2ncnc3c2C(C)CC3O)CC1)c1ccc(Cl)cc1 (stereo not drawn) + Cc1nc(NC(=O)N2CCCC2C(N)=O)sc1-c1ccnc(C(C)(C)C(F)(F)F)c1 ?
87.3

====

# System: 252836-082-R-J2-PDC tumor spheroids, viability
# measurement.protocol: Anticancer human tumor 252836-082-R-J2-PDC cell line growth inhibition [PI3K];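 also: spheroids exposed to agents for seven days before readout; percent of vehicle DMSO control viability so 100% = untreated growth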
# condition.notes: second compound 0.01 µM; first compound 1 µM; active compounds read low; spheroids with HUVEC and MSC
experimental.endpoint: viability, T/C (%)
Answers are plain numbers, in %.

Sample answers from the record:
molecule="CCN1CCN(Cc2ccc(Nc3ncc(F)c(-c4cc(F)c5nc(C)n(C(C)C)c5c4)n3)nc2)CC1 + COc1c(OCCCN2CCOCC2)ccc2c3n(c(=NC(=O)c4cnc(N)nc4)nc12)CCN3" study_target="252836-082-R-J2-PDC tumor spheroids, viability" experimental_endpoint="viability, T/C" units_of_measure=% reading=78
molecule="CNC(=O)c1ccc(N2C(=S)N(c3ccc(C#N)c(C(F)(F)F)c3)C(=O)C2(C)C)cc1F + CC(Nc1ccc2c(c1)OCCn1cc(N3C(=O)OCC3C(F)F)nc1-2)C(N)=O" study_target="252836-082-R-J2-PDC tumor spheroids, viability" experimental_endpoint="viability, T/C" units_of_measure=% reading=89.1
molecule="Cn1nccc1Nc1nccc(-c2ccn(C(CO)c3ccc(Cl)c(F)c3)c(=O)c2)n1 (stereo unspecified) + COc1c(OCCCN2CCOCC2)ccc2c3n(c(=NC(=O)c4cnc(N)nc4)nc12)CCN3" study_target="252836-082-R-J2-PDC tumor spheroids, viability" experimental_endpoint="viability, T/C" units_of_measure=% reading=79.1
molecule="CCN1CCN(Cc2ccc(Nc3ncc(F)c(-c4cc(F)c5nc(C)n(C(C)C)c5c4)n3)nc2)CC1 + CC(Nc1ccc2c(c1)OCCn1cc(N3C(=O)OCC3C(F)F)nc1-2)C(N)=O" study_target="252836-082-R-J2-PDC tumor spheroids, viability" experimental_endpoint="viability, T/C" units_of_measure=% reading=70.3
molecule="CC(Cn1ccc(-c2ccc(C#N)c(Cl)c2)n1)NC(=O)c1cc(C(C)O)[nH]n1 (stereo unspecified) + COc1c(OCCCN2CCOCC2)ccc2c3n(c(=NC(=O)c4cnc(N)nc4)nc12)CCN3" study_target="252836-082-R-J2-PDC tumor spheroids, viability" experimental_endpoint="viability, T/C" units_of_measure=% reading=93.3

List viability, T/C for every entry below, keeping the order given.
1. CC(C)NCC(C(=O)N1CCN(c2ncnc3c2C(C)CC3O)CC1)c1ccc(Cl)cc1 (stereo unspecified) + CC(Nc1ccc2c(c1)OCCn1cc(N3C(=O)OCC3C(F)F)nc1-2)C(N)=O
2. CCCS(=O)(=O)Nc1ccc(F)c(C(=O)c2c[nH]c3ncc(-c4ccc(Cl)cc4)cc23)c1F + CC(Nc1ccc2c(c1)OCCn1cc(N3C(=O)OCC3C(F)F)nc1-2)C(N)=O
3. CCCS(=O)(=O)Nc1ccc(F)c(C(=O)c2c[nH]c3ncc(-c4ccc(Cl)cc4)cc23)c1F + COc1c(OCCCN2CCOCC2)ccc2c3n(c(=NC(=O)c4cnc(N)nc4)nc12)CCN3
4. Cn1ncc(Cl)c1-c1cc(C(=O)NC(CN)Cc2cccc(F)c2)sc1Cl (stereo unspecified) + CC(Nc1ccc2c(c1)OCCn1cc(N3C(=O)OCC3C(F)F)nc1-2)C(N)=O
5. CC1(C)CCC(CN2CCN(c3ccc(C(=O)NS(=O)(=O)c4ccc(NCC5CCOCC5)c([N+](=O)[O-])c4)c(Oc4cnc5[nH]ccc5c4)c3)CC2)=C(c2ccc(Cl)cc2)C1 + COc1c(OCCCN2CCOCC2)ccc2c3n(c(=NC(=O)c4cnc(N)nc4)nc12)CCN3
6. Cn1nccc1Nc1nccc(-c2ccn(C(CO)c3ccc(Cl)c(F)c3)c(=O)c2)n1 (stereo unspecified) + CC(Nc1ccc2c(c1)OCCn1cc(N3C(=O)OCC3C(F)F)nc1-2)C(N)=O

1: 42.5; 2: 100; 3: 87.5; 4: 33.6; 5: 84.8; 6: 89.7

====

# Tested on: 252836-082-R-J2-PDC tumor spheroids, viability
# measurement.protocol: Anticancer human tumor 252836-082-R-J2-PDC cell line growth inhibition [PI3K];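 also: spheroids exposed to agents for seven days before readout; percent of vehicle DMSO control viability so 100% = untreated growth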
# condition.notes: second compound 10 µM; first compound 1 µM; active compounds read low; spheroids with HUVEC and MSC
So I've got a bunch of compounds here, and I need their viability, T/C values.
Give bare numbers, in %.

compound="CC(C)NCC(C(=O)N1CCN(c2ncnc3c2C(C)CC3O)CC1)c1ccc(Cl)cc1 (stereo unspecified) + CC(Nc1ncnc2nc[nH]c12)c1cc2cccc(Cl)c2c(=O)n1-c1ccccc1" study_target="252836-082-R-J2-PDC tumor spheroids, viability" reading=46.3
compound="CCCS(=O)(=O)Nc1ccc(F)c(C(=O)c2c[nH]c3ncc(-c4ccc(Cl)cc4)cc23)c1F + CC(Nc1ncnc2nc[nH]c12)c1cc2cccc(Cl)c2c(=O)n1-c1ccccc1" study_target="252836-082-R-J2-PDC tumor spheroids, viability" reading=65
compound="CC1(C)CCC(Nc2ncc(C(F)(F)F)c(-c3c[nH]c4c(P(C)(C)=O)c(C#N)ccc34)n2)CN1 (stereo unspecified) + CC(Nc1ncnc2nc[nH]c12)c1cc2cccc(Cl)c2c(=O)n1-c1ccccc1" study_target="252836-082-R-J2-PDC tumor spheroids, viability" reading=23

List viability, T/C for every entry below, keeping the order given.
1. CCN1CCN(Cc2ccc(Nc3ncc(F)c(-c4cc(F)c5nc(C)n(C(C)C)c5c4)n3)nc2)CC1 + CC(Nc1ncnc2nc[nH]c12)c1cc2cccc(Cl)c2c(=O)n1-c1ccccc1
2. Cn1nccc1Nc1nccc(-c2ccn(C(CO)c3ccc(Cl)c(F)c3)c(=O)c2)n1 (stereo unspecified) + Cc1nc(NC(=O)N2CCCC2C(N)=O)sc1-c1ccnc(C(C)(C)C(F)(F)F)c1
3. CNC(=O)c1ccc(N2C(=S)N(c3ccc(C#N)c(C(F)(F)F)c3)C(=O)C2(C)C)cc1F + Cc1nc(NC(=O)N2CCCC2C(N)=O)sc1-c1ccnc(C(C)(C)C(F)(F)F)c1
4. Cn1nccc1Nc1nccc(-c2ccn(C(CO)c3ccc(Cl)c(F)c3)c(=O)c2)n1 (stereo unspecified) + CC(Nc1ncnc2nc[nH]c12)c1cc2cccc(Cl)c2c(=O)n1-c1ccccc1

1. 53.6
2. 23.6
3. 35.4
4. 73.4
